assay: chemical genetic growth profiling, strain panel (AID 1159580);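 also: tested at 20 µM; growth read once vehicle control cultures reached saturation at 30 °C; 1 = growth at the plate median or of vehicle wells; lower values mean less growth of the strain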; conditions: S. cerevisiae deletion strains, growth OD, locus YOR070C, strain gyp1
Hit rate of the full screen: of about 5,500 compounds, about 2,000 (36%) were called active. Roughly 18% stayed inconclusive and do not appear here. Rule as the data show it: active = normalized growth mostly below about 0.91 (no sharp cut-off); inconclusive = no clear call, values can overlap the other calls; inactive = mostly above about 0.92. The list shows a part of the results.
Outcomes you can answer with include only these: label 1 (active), label 0 (inactive)

Worked set:
In [3]: df
Out[3]:
                                   compound    group
0  COC(=O)/C(=C1\OC(=O)C(c2ccccc2)=C1O)c1ccccc1  label 0
1  CC(CCC(=O)O)[C@H]1CCC2C3C(=O)C[C@@H]4CC(=O)CC[C@]4(C)C3CC(=O)[C@@]21C (stereo partly specified)  label 0
2                   COc1cc(C(C)=O)cc(OC)c1O  label 0
3  CC(C)(C)NCC(O)c1ccc(O)c(CO)c1 (stereo unspecified)  label 0
4         CC(C)(C)NC[C@H](O)c1ccc(O)c(CO)c1  label 0

Tell me the recorded outcome of this test for CC(C)c1ccc2c(c1)CCC1[C@](C)(CN)CCC[C@]21C (stereo partly specified) .
label 0

Tell me the recorded outcome of this test for CN1CCN(C(=O)OC2c3nccnc3C(=O)N2c2ccc(Cl)cn2)CC1 (stereo unspecified) .
label 0

Tell me the recorded outcome of this test for CCOC(=O)NNc1nncc2ccccc12 .
label 0

Tell me the recorded outcome of this test for Oc1c(Cl)cc(Cl)cc1Sc1cc(Cl)cc(Cl)c1O .
label 1

Tell me the recorded outcome of this test for CC(C)=CCCC(C)[C@@H]1CC[C@]2(C)C3=C(CC[C@@]12C)C1(C)CC[C@H](O)C(C)(C)C1CC3 (stereo partly specified) .
label 0

###

Examples of molecules with documented normalized growth follow.
test: chemical genetic growth profiling, strain panel (AID 1159580); details: S. cerevisiae deletion strains, growth OD, locus YGR078C, strain PAC10, stronger effect = lower value
Screen size: about 5,500 compounds; about 2,000 (36%) were called active. Roughly 18% stayed inconclusive and do not appear here. The list shows a part of the results.

Use the examples below as a reference point.
>>> df
                                  molecule        meas_value
0  CC(C)CC1NC(=O)CNC1=O (stereo not given)  0.969 (inactive)
1             CN(C)CCCN1c2ccccc2Sc2ccccc21   1.01 (inactive)

Identify measured normalized growth corresponding to NCCCNCCCCNCCCN
1.01 (inactive)

Identify measured normalized growth corresponding to CN=C(NC#N)Nc1ccc(C2=NNC(=O)CC2C)cc1 (stereo not given)
1 (inactive)

Identify measured normalized growth corresponding to CN(C)CCCN1c2ccccc2Sc2ccc(C(F)(F)F)cc21
1.01 (inactive)

###

assay: chemical genetic growth profiling, strain panel (AID 1159580); conditions: S. cerevisiae deletion strains, growth OD, locus YJR066W, strain TOR1, stronger effect = lower value
Screen size: about 5,500 compounds; about 2,000 (36%) were called active. About 18% were inconclusive and are not listed. The list shows a part of the results.
Examples of compounds with documented normalized growth follow.
Give the figure only, with no unit attached.

compound	attribute measured	meas value
CN(C)c1ccc(O)c2c1C[C@H]1C[C@H]3[C@H](N(C)C)C(=O)C(C(N)=O)=C(O)[C@@]3(O)C(=O)C1=C2O	normalized growth	0.941
CC(C)c1ccc2c(c1)CCC1C(C)(C(N)=O)CCCC21C (centres undefined)	normalized growth	0.936
O=C(O)c1cc(O)c2c(c1)[C@@H]([C@H]1c3cc(C(=O)O)cc(O)c3C(=O)c3c(O[C@H]4O[C@H](CO)[C@@H](O)[C@H](O)[C@H]4O)cccc31)c1cccc(O[C@H]3O[C@H](CO)[C@@H](O)[C@H](O)[C@H]3O)c1C2=O	normalized growth	0.934
OC[C@H]1O[C@@H](O[C@H]2[C@H](O)[C@@H](O)[C@@H](O)O[C@@H]2CO)[C@H](O)[C@@H](O)[C@@H]1O	normalized growth	0.921
COC(=O)c1sccc1NS(=O)(=O)c1cc(Cl)cc(Cl)c1	normalized growth	1.06

Identify measured normalized growth corresponding to CN(C)[C@@H]1C(=O)C(C(N)=O)=C(O)[C@@]2(O)C(=O)C3=C(O)c4c(O)ccc(Cl)c4[C@@H](O)[C@H]3C[C@@H]12
0.97

Identify measured normalized growth corresponding to O=C(O)c1cc(O)c2c(c1)[C@@H]([C@@H]1c3cc(C(=O)O)cc(O)c3C(=O)c3c(O[C@H]4O[C@H](CO)[C@@H](O)[C@H](O)[C@H]4O)cccc31)c1cccc(O[C@H]3O[C@H](CO)[C@@H](O)[C@H](O)[C@H]3O)c1C2=O
1

Identify measured normalized growth corresponding to CC(CCC(=O)O)[C@H]1CCC2C3C(=O)C[C@@H]4CC(=O)CC[C@]4(C)C3CC(=O)[C@@]21C (some centres undefined)
0.975

Identify measured normalized growth corresponding to CCC(C)[C@H]1O[C@]2(C=C[C@@H]1C)C[C@@H]1C[C@@H](C/C=C(\C)[C@@H](OC3C[C@H](OC)C(O[C@H]4C[C@H](OC)[C@@H](O)[C@H](C)O4)[C@H](C)O3)[C@@H](C)/C=C/C=C3\CO[C@@H]4[C@H](O)C(C)=C[C@@H](C(=O)O1)[C@]34O)O2 (some centres undefined)
0.973

###

assay: chemical genetic growth profiling, strain panel (AID 1159580);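 also: tested at 20 µM; growth read once vehicle control cultures reached saturation at 30 °C; 1 = growth at the plate median or of vehicle wells; lower values mean less growth of the strain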; conditions: S. cerevisiae deletion strains, growth OD, locus YLR027C, strain aat2
Among all 5,500 compounds or so, about 2,000 (36%) were called active. Not shown: some 18% with an inconclusive outcome. Rule as the data show it: active = normalized growth mostly below about 0.91 (no sharp cut-off); inconclusive = no clear call, values can overlap the other calls; inactive = mostly above about 0.92. Some of the results follow.
Outcomes you can answer with include only these: active, inactive

Worked set:
compound	group
CC(=O)Oc1ccc(O)cc1	inactive
Nc1ccc(C(=O)O)cc1	inactive
O=P1(NCCCl)OCCCN1CCCl (stereo unspecified)	inactive
CC1=CCCC2C1(C)CCC(C)C2(C)CC/C(C)=C/C[n+]1cn(C)c2c(N)ncnc21 (stereo unspecified)	inactive
N=C(N)N	inactive
Cc1scc2c1N(C(=O)CN1CCN(C)CC1)c1ccccc1NC2=O	inactive

Consider now this further compound.
Tell me the recorded outcome of this test for CC(C)CCCC(C)C1CCC2C3CC(=O)[C@H]4C[C@@H](O)CC[C@]4(C)C3CC[C@]12C (stereo partly specified) .
inactive

###

Examples of molecules with documented normalized growth follow.
assay: chemical genetic growth profiling, strain panel (AID 1159580);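 also: tested at 20 µM; growth read once vehicle control cultures reached saturation at 30 °C; 1 = growth at the plate median or of vehicle wells; lower values mean less growth of the strain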; settings: S. cerevisiae deletion strains, growth OD, locus YIL125W, strain kgd1, stronger effect = lower value
The whole screen tested about 5,500 compounds, of which about 2,000 (36%) were called active. Inconclusive results (about 18%) are left out. This is one part of the list.
Give the figure only, with no unit attached.

Use the examples below as a reference point.
>>> print(df.to_string())
                              record_smiles  meas_value
0  COC(=O)c1c(C)c2c(c(C)c1OC)OC(=O)c1c(C)c(Cl)c(OC)c(Cl)c1O2        1.01
1                   COc1cc(C(C)=O)cc(OC)c1O       0.997
2  COC(=O)c1c(OC)cc2c(c1C)Oc1c(Cl)c(OC(C)=O)c(Cl)c(C)c1C(=O)O2        1.02

// below: normalized growth requested for another molecule
Identify measured normalized growth corresponding to Oc1cccc(O)c1
0.986

###

Examples of molecules with documented normalized growth follow.
test: chemical genetic growth profiling, strain panel (AID 1159580);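 also: tested at 20 µM; growth read once vehicle control cultures reached saturation at 30 °C; 1 = growth at the plate median or of vehicle wells; lower values mean less growth of the strain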; details: S. cerevisiae deletion strains, growth OD, locus YER155C, strain BEM2, stronger effect = lower value
Hit rate of the full screen: of about 5,500 compounds, about 2,000 (36%) were called active. Inconclusive results (about 18%) are left out. The list shows a part of the results.

molecule	normalized growth
CC(=O)Oc1ccc(O)cc1	1.01 (inactive)
CC(=O)Oc1ccc(C(c2ccc(OC(C)=O)cc2)c2ccccn2)cc1	0.983 (inactive)
CC(=O)O[C@@H]1CC2C(C)(C)[C@H](O)C=C[C@]2(C)C2CC[C@]3(C)C(=CC(=O)O[C@H]3c3ccoc3)[C@@]21C (some centres not stated)	0.997 (inactive)
CC(C)CCCC(C)C1CCC2C3C[C@@H](O)[C@@]4(O)C[C@@H](O)CC[C@]4(C)C3CC[C@]12C (some centres not stated)	1 (inactive)
CC(=O)Oc1cccc(O)c1	0.996 (inactive)
CC(=O)c1ccc(O)c(CC=C(C)C)c1	0.986 (inactive)
O=C(O)c1cc(O)c2c(c1)[C@@H]([C@H]1c3cc(C(=O)O)cc(O)c3C(=O)c3c(O[C@H]4O[C@H](CO)[C@@H](O)[C@H](O)[C@H]4O)cccc31)c1cccc(O[C@H]3O[C@H](CO)[C@@H](O)[C@H](O)[C@H]3O)c1C2=O	1.01 (inactive)
CC(=O)O[C@@H]1C=C[C@@]2(C)C(C[C@@H](OC(C)=O)[C@@]3(C)C4=CC(=O)O[C@@H](c5ccoc5)[C@]4(C)CCC23)C1(C)C (some centres not stated)	1.01 (inactive)

Identify measured normalized growth corresponding to CC(C)=CC1C(C(=O)O)C1(C)C (configuration not stated)
0.999 (inactive)

Identify measured normalized growth corresponding to CN(C)CCCN1c2ccccc2CCc2ccc(Cl)cc21
1 (inactive)

Identify measured normalized growth corresponding to OC[C@H]1O[C@@H](O[C@H]2[C@H](O)[C@@H](O)[C@@H](O)O[C@@H]2CO)[C@H](O)[C@@H](O)[C@@H]1O
1.02 (inactive)

Identify measured normalized growth corresponding to CS(=O)(=O)c1ccc([C@@H](O)[C@@H](CO)NC(=O)C(Cl)Cl)cc1
1 (inactive)
